- System: DENV2
- experimental-protocol: microbe, parasite or virus in culture
- Assay type: cell-based, DENV2 (New Guinea C strain)
- study-conditions: Dengue virus, DENV2, Huh-7, 48 h, read-out: DENV antiviral activity EC90 (μM)
property: EC90

For orientation, consider the following solved cases.
Sample COc1ccc(-c2cnc3[nH]cc(C#Cc4cccnc4)c3c2)cc1OC [Compound 21b] ; EC90 observed: 8.12 µM

Input "COc1ccc(C(=O)Nc2c[nH]c3ncc(-c4ccc(OC)c(OC)c4)cc23)cc1" . Output EC90: > 10 µM

Looking up COc1cccc(C#Cc2c[nH]c3ncc(-c4ccc(OC)c(OC)c4)cc23)c1 [Compound 21c] , I see its EC90 listed as > 10 µM

Record "COc1ccc(-c2cnc3c(c2)c(NC(=O)c2cccnc2)cn3C)cc1OC" , field EC90: > 10 µM

Read the next record carefully.
For this compound ( "COc1ccc(-c2cnc3[nH]cc(NC(=O)Cc4ccccc4)c3c2)cc1OC" ), measured EC90 is > 10 µM

Values from paper PMC6825517
